Provenance of the data: patent US20260193264A1

System Name: HiBit-BRG1 fusion protein in stable HeLa cell line expressing HiBit-BRG1 and LgBit (Homo sapiens, UniProt P51532)
Construct: expressed in transfected cells
Sequence (P51532 whole entry, the tested form may be a part): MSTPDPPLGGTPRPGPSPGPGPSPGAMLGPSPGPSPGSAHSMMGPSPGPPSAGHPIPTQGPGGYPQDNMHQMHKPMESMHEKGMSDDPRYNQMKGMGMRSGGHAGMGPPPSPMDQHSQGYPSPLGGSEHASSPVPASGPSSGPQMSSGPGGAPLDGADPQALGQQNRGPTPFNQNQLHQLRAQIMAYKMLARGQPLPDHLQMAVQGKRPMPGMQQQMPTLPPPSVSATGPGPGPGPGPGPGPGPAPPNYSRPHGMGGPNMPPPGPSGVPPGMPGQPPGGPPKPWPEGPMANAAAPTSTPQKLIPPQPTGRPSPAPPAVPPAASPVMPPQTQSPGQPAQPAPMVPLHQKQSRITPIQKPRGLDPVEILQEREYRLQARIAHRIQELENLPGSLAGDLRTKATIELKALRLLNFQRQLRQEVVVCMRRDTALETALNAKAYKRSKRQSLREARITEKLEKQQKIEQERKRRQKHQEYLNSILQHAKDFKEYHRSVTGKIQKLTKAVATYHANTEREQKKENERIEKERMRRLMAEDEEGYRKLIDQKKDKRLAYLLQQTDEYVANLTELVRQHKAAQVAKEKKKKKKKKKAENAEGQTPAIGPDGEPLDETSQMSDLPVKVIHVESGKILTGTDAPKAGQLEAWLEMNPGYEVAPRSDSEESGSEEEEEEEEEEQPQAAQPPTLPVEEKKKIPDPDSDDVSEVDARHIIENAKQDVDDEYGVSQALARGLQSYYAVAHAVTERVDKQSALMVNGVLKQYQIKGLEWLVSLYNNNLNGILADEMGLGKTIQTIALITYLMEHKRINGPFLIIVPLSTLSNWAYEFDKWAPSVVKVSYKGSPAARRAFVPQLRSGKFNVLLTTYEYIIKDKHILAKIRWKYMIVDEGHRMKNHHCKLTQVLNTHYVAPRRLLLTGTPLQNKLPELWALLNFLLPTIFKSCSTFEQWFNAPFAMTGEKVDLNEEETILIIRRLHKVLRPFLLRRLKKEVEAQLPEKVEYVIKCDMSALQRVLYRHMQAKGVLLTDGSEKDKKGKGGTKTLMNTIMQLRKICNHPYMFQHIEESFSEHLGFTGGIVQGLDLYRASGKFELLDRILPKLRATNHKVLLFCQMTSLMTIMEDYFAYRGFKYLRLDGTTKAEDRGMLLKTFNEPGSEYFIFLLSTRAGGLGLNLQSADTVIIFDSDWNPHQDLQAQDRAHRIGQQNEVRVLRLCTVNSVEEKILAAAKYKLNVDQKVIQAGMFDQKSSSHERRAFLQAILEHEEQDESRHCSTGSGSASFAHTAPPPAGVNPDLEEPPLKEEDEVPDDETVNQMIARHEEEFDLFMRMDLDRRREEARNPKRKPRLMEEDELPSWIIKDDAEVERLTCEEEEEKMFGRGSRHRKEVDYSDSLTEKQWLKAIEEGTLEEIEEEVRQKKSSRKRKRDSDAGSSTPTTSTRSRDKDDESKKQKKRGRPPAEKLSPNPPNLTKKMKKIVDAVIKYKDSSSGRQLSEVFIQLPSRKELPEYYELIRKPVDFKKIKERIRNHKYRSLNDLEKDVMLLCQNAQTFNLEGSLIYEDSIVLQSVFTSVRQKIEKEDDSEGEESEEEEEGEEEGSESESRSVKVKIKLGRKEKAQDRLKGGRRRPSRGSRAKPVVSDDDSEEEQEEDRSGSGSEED
Assay Details: HiBiT-BRG1 cell-based degradation assay (Nano-Glo HiBiT, 24 h)
Measurement Parameters: HeLa HiBit-BRG1/LgBit cells, read-out: BRMG1 HiBit Degradation IC50
Documented DC50 across a set of compounds

[[record]]
compound = "Cc1ncsc1-c1ccc([C@H](C)NC(=O)[C@@H]2C[C@@H](O)CN2C(=O)[C@@H](c2cc(N3CC4(C3)CN(c3cc5cc(-c6ccccc6O)nnc5cc3C3CC3)C4)no2)C(C)C)cc1 [Compound 152]"
meas_value = "< 10 nM"

[[record]]
compound = "CC(C)[C@@H](C(=O)N1C[C@H](O)C[C@H]1C(=O)N[C@@H](C)c1ccc(F)cc1)c1cc(-c2ccc3nnc(-c4ccccc4O)cc3c2)no1 [Compound 134]"
meas_value = "> 10 nM"

[[record]]
compound = "Cc1ncsc1-c1ccc([C@H](C)NC(=O)[C@@H]2C[C@@H](O)CN2C(=O)C(C(C)C)n2cc(N3CC4CN(c5ccc6cc(-c7ccccc7O)nnc6c5)CCC43)nn2)cc1 (some centres unmarked) [Compound 250]"
meas_value = "< 10 nM"


Ask | Entry Cc1ncsc1-c1ccc([C@H](C)NC(=O)[C@@H]2C[C@@H](O)CN2C(=O)C(C(C)C)n2cc(N3CC4CCN(c5ccc6cc(-c7ccccc7O)nnc6c5)CC43)nn2)cc1 (some centres unmarked) [Compound 249] : reported DC50 = ?
Reply | > 100 nM

Ask | For the compound Cc1ncsc1-c1ccc([C@H](C)NC(=O)[C@@H]2C[C@@H](O)CN2C(=O)[C@@H](c2cc(N3CC4(CCC(c5ccc6nnc(-c7ccccc7O)cc6c5)CC4)C3)no2)C(C)C)cc1 [Compound 62] , what DC50 is on record?
Reply | > 10 nM
